# ASSAY_SYSTEM: recombinant PARP-1 (Homo sapiens, UniProt P09874)
# Sequence (P09874 whole entry): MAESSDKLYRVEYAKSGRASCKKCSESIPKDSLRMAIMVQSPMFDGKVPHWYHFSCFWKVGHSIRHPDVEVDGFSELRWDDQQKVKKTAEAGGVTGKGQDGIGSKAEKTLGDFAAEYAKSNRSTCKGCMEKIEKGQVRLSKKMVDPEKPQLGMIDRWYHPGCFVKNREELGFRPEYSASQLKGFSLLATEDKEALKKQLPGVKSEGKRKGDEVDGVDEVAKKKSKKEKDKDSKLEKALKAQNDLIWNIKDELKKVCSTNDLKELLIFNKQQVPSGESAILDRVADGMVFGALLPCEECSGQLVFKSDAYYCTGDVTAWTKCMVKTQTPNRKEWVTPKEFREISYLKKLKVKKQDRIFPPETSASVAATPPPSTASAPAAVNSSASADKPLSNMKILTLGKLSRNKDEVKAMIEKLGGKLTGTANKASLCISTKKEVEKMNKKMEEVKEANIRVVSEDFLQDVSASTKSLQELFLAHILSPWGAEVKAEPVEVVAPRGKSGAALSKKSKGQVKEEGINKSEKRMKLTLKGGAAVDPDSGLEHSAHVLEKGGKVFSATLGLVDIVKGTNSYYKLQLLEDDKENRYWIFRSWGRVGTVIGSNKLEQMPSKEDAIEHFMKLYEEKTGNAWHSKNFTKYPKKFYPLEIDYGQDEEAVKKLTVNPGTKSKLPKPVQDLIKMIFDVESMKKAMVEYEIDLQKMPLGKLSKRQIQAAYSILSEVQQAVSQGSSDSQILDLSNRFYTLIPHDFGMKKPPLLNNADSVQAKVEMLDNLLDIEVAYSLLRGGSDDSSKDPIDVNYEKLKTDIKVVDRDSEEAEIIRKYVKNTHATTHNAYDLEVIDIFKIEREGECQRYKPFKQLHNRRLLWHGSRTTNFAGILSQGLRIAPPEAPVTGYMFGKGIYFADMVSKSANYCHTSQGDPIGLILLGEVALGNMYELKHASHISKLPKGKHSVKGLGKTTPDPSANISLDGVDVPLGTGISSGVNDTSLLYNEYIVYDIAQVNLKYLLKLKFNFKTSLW
# EXPERIMENT_NOTES: in vitro PARP-1 enzyme inhibition assay
# Type: biochemical
# PARTICULARS: Table 3, in vitro enzyme inhibition; read-out: IC50
pIC50: −log10 of the molar value.
VALUE_TYPE: pIC50

>>> print(df.to_string())
                                   molecule  value_type  value_observed
0  COc1ccc(N2CCN(C(=O)c3ccc4c(c3)NC(=O)c3ccccc3N4)CC2)cc1 [K245-39A]       pIC50            5.26
1  CCN(CCCNC(=O)c1ccc2c(c1)NC(=O)c1ccccc1N2)c1cccc(C)c1       pIC50            5.40
2  COC(CNC(=O)c1ccc2c(c1)NC(=O)c1ccccc1N2)OC       pIC50            5.70
3  O=C1Nc2cc(C(=O)N3CCN(c4ccc(Cl)cc4)CC3)ccc2Nc2ccccc21       pIC50            6.82
4     O=C1Nc2cc(C(=O)N3CCCC3)ccc2Nc2ccccc21       pIC50            5.46
5  O=C1Nc2cc(C(=O)N3CCN(Cc4ccccc4)CC3)ccc2Nc2ccccc21       pIC50            5.66
6  O=C1Nc2cc(C(=O)N3CCN(c4ccccc4F)CC3)ccc2Nc2ccccc21       pIC50            6.26

----------
# ASSAY_SYSTEM: recombinant PARP-1 (Homo sapiens, UniProt P09874)
# EXPERIMENT_NOTES: in vitro PARP-1 enzyme inhibition assay
# Type: biochemical
# PARTICULARS: text and figure legend; read-out: IC50 for PARP-1 inhibition in vitro
Consider the following compounds and their measured IC50 readings.
VALUE_TYPE: IC50 (nM)

>>> print(df.to_string())
                                   compound  value_type  unit_tag  value_observed
0           Nc1ccc2c3c(cccc13)C(=O)N2 [CG1]        IC50        nM            2500
1  CCN(CC)CCNC(=O)c1ccc2c(c1)NC(=O)c1ccccc1N2 [K245-14]        IC50        nM            2000

----------
# System: striatal cells derived from Huntingtin double knock-in mutant and wildtype transgenic mice
# EXPERIMENT_NOTES: ATP levels in oxidant-treated wildtype and mutant HD striatal cells
# Format: cell-based, mouse
# PARTICULARS: Mus musculus, mutant HD striatal cells; read-out: oxidant concentration for 50% loss of ATP
VALUE_TYPE: EC50

>>> df
                 compound                              assay_system  value_type  value_observed
0  OO [hydrogen peroxide]  striatal cells derived from Huntingtin double knock-in mutant and wildtype transgenic mice        EC50          410 µM
